Source: paper PMC7334207

Biological target: T1, G478del WT-mut1 hybrid dimer (Homo sapiens, UniProt Q8WYQ5;Q8WYQ5 285-369+430-478;285-369+430-478, internal_change;W461A;A462G;E463Q;internal_change)
T1 sequence 1: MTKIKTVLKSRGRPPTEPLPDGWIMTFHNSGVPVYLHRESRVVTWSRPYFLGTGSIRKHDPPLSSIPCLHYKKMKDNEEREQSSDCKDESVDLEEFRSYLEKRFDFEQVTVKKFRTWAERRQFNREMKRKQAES
T1 sequence 2: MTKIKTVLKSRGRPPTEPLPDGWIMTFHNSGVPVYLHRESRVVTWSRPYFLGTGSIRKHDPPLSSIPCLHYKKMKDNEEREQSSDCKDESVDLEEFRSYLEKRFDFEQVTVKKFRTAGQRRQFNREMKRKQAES
Assay: EMSA; 50 mM Tris-HCl pH 7.5, 250 mM NaCl, 10% glycerol, 0.2 mg/ml BSA, 1 mM DTT, 2 mM EDTA; 1 uM RNA in 10 uL; on ice 60 min; 4% native PAGE at 4 C, ethidium bromide
Settings: protein: recombinant; tags: 10xHis on mut1 subunit; protein G on WT subunit removed by HRV 3C; copies: 1;1; hairpin
Result Type: pKd
# reply with the number alone; pKd is -log10 of concentration in mol/L

Request: // Input: ACUGGAAGCCAAGAAAGAUGGGCUUUCAGU (structured_RNA) [10L10_noUGU] . Output its pKd only.
Response: 4.94

Request: For the binder ACUGGAAGCUGUGAAAGAUGGGCUUUCAGU (structured_RNA) [10L10_UGU] , report pKd.
Response: 5.27
